Target: VEGFR2 (Homo sapiens)
Sequence (P35968 786-1356 limits assumed): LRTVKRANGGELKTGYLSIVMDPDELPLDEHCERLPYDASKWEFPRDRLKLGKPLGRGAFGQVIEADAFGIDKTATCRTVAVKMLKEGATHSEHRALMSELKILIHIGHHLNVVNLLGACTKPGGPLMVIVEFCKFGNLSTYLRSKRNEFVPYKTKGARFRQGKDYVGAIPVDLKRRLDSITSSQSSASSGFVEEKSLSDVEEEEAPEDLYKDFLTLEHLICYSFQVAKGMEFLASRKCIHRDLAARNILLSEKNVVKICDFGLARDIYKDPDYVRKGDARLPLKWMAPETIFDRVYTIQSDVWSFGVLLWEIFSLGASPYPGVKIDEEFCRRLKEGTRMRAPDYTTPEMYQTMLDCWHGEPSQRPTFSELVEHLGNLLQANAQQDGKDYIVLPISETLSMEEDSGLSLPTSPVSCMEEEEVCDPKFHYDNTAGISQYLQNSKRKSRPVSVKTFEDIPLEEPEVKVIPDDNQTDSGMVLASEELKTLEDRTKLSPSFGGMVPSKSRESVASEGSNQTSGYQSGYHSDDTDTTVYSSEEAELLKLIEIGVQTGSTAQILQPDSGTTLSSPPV
Assay: VEGFR2 Kinase Assay (biochemical KDR kinase, poly-Glu-Tyr ELISA)
Design: 200-300 ng purified cytoplasmic domain KDR protein; purchased BPS Bioscience
Settings: purified cytoplasmic domain KDR protein, 2.7 μM ATP
Parameter: IC50 (nM)

Guide cases for IC50, answers given:
> print(dat)
                                   compound  result
1  COC(=O)CCCCS(=O)(CCCCC(=O)OC)=NC(=O)c1cnc(N)c(C#Cc2cccc(NC(=O)c3cccc([S+](C)[O-])c3)c2)c1 (stereo not drawn)      12
2  COC(=O)CCCCS(=O)(CCCCC(=O)OC)=NC(=O)c1cnc(N)c(C#Cc2cccc(C(=O)Nc3cc(C(C)(C)C)on3)c2)c1      28
3  COC(=O)CCCCS(=O)(CCCCC(=O)OC)=NC(=O)c1cnc(N)c(C#Cc2cccc(NC(=O)c3cc(C)ccc3F)c2)c1      11
4  COC(=O)CCCCS(=O)(CCCCC(=O)OC)=NC(=O)c1cnc(N)c(C#Cc2cccc(C(=O)Nc3ccc(OC)c(Cl)c3)c2)c1       9

I: COC(=O)CCCCS(=O)(CCCCC(=O)OC)=NC(=O)c1cnc(N)c(C#Cc2cccc(NC(=O)c3cccc(C)c3)c2)c1
II: COC(=O)CCCCS(=O)(CCCCC(=O)OC)=NC(=O)c1cnc(N)c(C#Cc2cccc(NC(=O)c3cc(C(F)(F)F)ccc3F)c2)c1
Asked: Which value of IC50 is greater, the one for I or the one for II ? # respond with the chosen item's label
Given back: II
(II: 20 nM, I: 9 nM)
